Can you tell me TGI for the items I'm about to list?
Tested on: SW-620 colon
Assay remarks: NCI tumour cell line growth inhibition, 48 h

Exercise: State the recorded TGI for this entry: CCN1CCC(O)(c2ccc(Cl)c(Cl)c2)C(C(=O)c2ccc(Cl)c(Cl)c2)C1 (stereo unspecified)
Solution: 38.7 µM

Exercise: State the recorded TGI for this entry: O=C1O[C@H](COC(=O)c2ccccc2)[C@@H](OC(=O)c2ccccc2)C=C1OC(=O)c1ccccc1
Solution: 35.9 µM

Exercise: State the recorded TGI for this entry: Cc1cc2nc(NS(=O)(=O)c3cc(C)c(Cl)cc3S)[nH]c2cc1C
Solution: > 100 µM

Exercise: State the recorded TGI for this entry: NCCCn1c2c(c3ccc([N+](=O)[O-])cc3c1=O)C(=O)c1cc(Cl)ccc1-2
Solution: 0.213 µM

Exercise: State the recorded TGI for this entry: O=C1/C(=C/c2ccc(C(F)(F)F)cc2)COc2ccc(O)cc21
Solution: 3.4 µM

Exercise: State the recorded TGI for this entry: NC(=O)N/N=C1/CCCC/C1=C\c1ccccc1
Solution: > 100 µM

Exercise: State the recorded TGI for this entry: CCCCCCCCCCC(CN(CC)CC)C(O)c1ccccc1 (stereo unspecified)
Solution: 3.43 µM

Exercise: State the recorded TGI for this entry: C/C(CC(=O)Nc1ccc(NC(=O)/C(C)=N/NS(=O)(=O)c2ccc(C)cc2)cc1)=N\NS(=O)(=O)c1ccc(C)cc1
Solution: > 100 µM

Exercise: State the recorded TGI for this entry: COc1cc(OC)c(NC2=NCCO2)cc1Cl
Solution: > 100 µM

Exercise: State the recorded TGI for this entry: c1ccc([P+](CCC[P+](c2ccccc2)(c2ccccc2)c2ccccc2)(c2ccccc2)c2ccccc2)cc1
Solution: > 100 µM

Exercise: State the recorded TGI for this entry: O=C(/C=C\c1ccc(OCCCCCC[P+](c2ccccc2)(c2ccccc2)c2ccccc2)cc1)c1ccc2c(c1)OCCO2
Solution: 2.55 µM

Exercise: State the recorded TGI for this entry: CN(C)Cc1cc(C(=O)/C=C/c2c(F)cccc2Cl)cc(CN(C)C)c1O
Solution: 31.3 µM

Exercise: State the recorded TGI for this entry: OC1NC2CC3NC(O)C(O)NC3CC2NC1O (stereo unspecified)
Solution: > 100 µM

Exercise: State the recorded TGI for this entry: c1cc(-c2cnn3nc(N4CCOCC4)ccc23)nc(NC2CC2)n1
Solution: > 25 µM

Exercise: State the recorded TGI for this entry: COc1ccc(Cn2cc3c(c2-c2ccccc2)CCc2cncnc2-3)cc1
Solution: 13.9 µM

Exercise: State the recorded TGI for this entry: CCN1CCN(c2cc(C)nc(NCc3cc(Nc4ccnc5cc(Cl)ccc45)ccc3F)n2)CC1
Solution: 15.1 µM

Exercise: State the recorded TGI for this entry: CS(=O)(=O)OC1CCN(C2(c3cccc(O)c3)CCCCC2)CC1
Solution: > 100 µM

Exercise: State the recorded TGI for this entry: O=C(Cc1nc2ccccc2s1)C(=O)Nc1ccc(Cl)cc1Cl
Solution: > 100 µM

Exercise: State the recorded TGI for this entry: C#CCOc1cccc(Nc2ncnc3c2ncn3C2CCN(C(=O)CCl)C2)c1 (stereo unspecified)
Solution: 39.1 µM

Exercise: State the recorded TGI for this entry: COc1cc(C(=C2SCCS2)c2nccc3cc(OC)c(OC)cc23)c([N+](=O)[O-])cc1OC
Solution: > 100 µM

Exercise: State the recorded TGI for this entry: CC1(C)N=C(/C(C#N)=[N+](/[O-])C(=O)c2ccccc2)C(C)(C)N1O
Solution: > 100 µM

---

Tested on: SK-MEL-5 melanoma
Assay remarks: NCI tumour cell line growth inhibition, 48 h
Can you tell me TGI for the items I'm about to list?
Quick reminder: number only, in µM, skip the unit.

Exercise: State the recorded TGI for this entry: COc1ccc(Cn2cc3c(c2-c2ccccc2)CCc2cncnc2-3)cc1
Solution: 14.2

Exercise: State the recorded TGI for this entry: CCCCc1oc2ccccc2c1C(=O)c1cc(I)c(OCCN(CC)CC)c(I)c1
Solution: 2.76

Exercise: State the recorded TGI for this entry: ClC1=C(Cl)C(Cl)=C(Cl)C1=Cc1ccc(Cl)cc1Cl
Solution: 2.26

Exercise: State the recorded TGI for this entry: NC(N)=N/N=C(/c1ccccc1)c1ccc(O)cc1O
Solution: 65.8

Exercise: State the recorded TGI for this entry: O=C1/C(=C/c2ccc(C(F)(F)F)cc2)COc2ccc(O)cc21
Solution: 4.38

Exercise: State the recorded TGI for this entry: c1cc(-c2cnn3nc(N4CCOCC4)ccc23)nc(NC2CC2)n1
Solution: 16.7

Exercise: State the recorded TGI for this entry: Clc1ccc2c(NCCN3CCN(c4ccnc(N5CCCC5)n4)CC3)ccnc2c1
Solution: 3.19

Exercise: State the recorded TGI for this entry: O=C1c2c(O)cccc2C(C(=O)CCCC(=O)C2c3cccc(O)c3C(=O)c3c(O)cccc32)c2cccc(O)c21
Solution: 0.671

Exercise: State the recorded TGI for this entry: NCCCn1c2c(c3ccc([N+](=O)[O-])cc3c1=O)C(=O)c1cc(Cl)ccc1-2
Solution: 0.25

Exercise: State the recorded TGI for this entry: O=C(Nc1ccc([N+](=O)[O-])cc1)c1cc2ccccc2cc1O
Solution: 0.534

Exercise: State the recorded TGI for this entry: CC1=NN(c2cccc(Cl)c2)C2(C1)SCC(=O)N2c1nc2ccccc2s1 (configuration not stated)
Solution: 39.4

Exercise: State the recorded TGI for this entry: N/C(=N\N=C/c1cc(Cl)cc(Cl)c1O)NO
Solution: 12.5

Exercise: State the recorded TGI for this entry: CC1(C)CC(O)CCCCCCOc2c(CN)cccc2NC(=O)c2nc(cnc2N)-c2ccc(cc2)S1(=O)=O (configuration not stated)
Solution: 2.89

Exercise: State the recorded TGI for this entry: CCNC(=O)CCCCC(=O)c1c(C)[nH]c(/C=C2\N=C(c3ccc[nH]3)C=C2OC)c1C
Solution: 24.9

Exercise: State the recorded TGI for this entry: O=C1C(Nc2cccc(O)c2)=C(Sc2ccc(Cl)cc2)C(=O)N1Cc1ccccc1
Solution: 24.7

Exercise: State the recorded TGI for this entry: COc1cc(C2c3cc4c(cc3OC(N3CCOCC3)C2C)OCO4)cc(OC)c1OC (configuration not stated)
Solution: 6.78

---

Test system: SNB-75 CNS
Assay remarks: NCI tumour cell line growth inhibition, 48 h
Where a SMILES comes first, the peptide text is derived from it. [ ]: non-standard residue; d: D form. The star is where a group is joined. X28 = COC1=CC(=O)N(C(=O)[C@@H](O*)C(C)C)[C@H]1Cc1ccccc1; NMeL = CN[C@@H](CC(C)C)C(=O)O; Cbz = O=C(OCc1ccccc1)*
Property label: TGI

Exercise: Item CC[C@@]1(O)C(=O)OCc2c1cc1n(c2=O)Cc2c-1nc1ccccc1c2/C=N\NC(=O)C(N)=O with SNB-75 CNS - TGI?
Solution: > 26 µM

Exercise: Item CCCCCCCCCCOC1C(C(C)OCCCN(C)C)OC2OC3(CCCCC3)OC21 (stereo not drawn) with SNB-75 CNS - TGI?
Solution: 20.1 µM

Exercise: Item O=C(O)C1(CC(CCCN2CCCCC2)c2ccccc2)CCCC1 (stereo not drawn) with SNB-75 CNS - TGI?
Solution: > 100 µM

Exercise: Item NC(=O)N/N=C1/CCCC/C1=C\c1ccccc1 with SNB-75 CNS - TGI?
Solution: > 100 µM

Exercise: Item CC(C)c1ccc(O)c(O)c(=O)c1 (tested in a mixture with another compound) with SNB-75 CNS - TGI?
Solution: 22.8 µM

Exercise: Item CC1(C)OCC(C2OC(=O)C(OCc3ccccc3)=C2OCc2ccccc2)O1 (stereo not drawn) with SNB-75 CNS - TGI?
Solution: > 100 µM

Exercise: Item CS(=O)(=O)OC1CCN(C2(c3cccc(O)c3)CCCCC2)CC1 with SNB-75 CNS - TGI?
Solution: > 100 µM

Exercise: Item O=C(NN1C(=O)C(Cl)C1c1ccc([N+](=O)[O-])cc1)c1ccccc1O (stereo not drawn) with SNB-75 CNS - TGI?
Solution: > 100 µM

Exercise: Item CCC[CH2][Sn]1([CH2]CCC)[O]CC([CH2][Sn]([c]2ccccc2)([c]2ccccc2)[c]2ccccc2)[O]1 (stereo not drawn) with SNB-75 CNS - TGI?
Solution: 20.2 µM

Exercise: Item C[n+]1c(-c2ccc(/C=N/Nc3n[nH]c(=S)n3N/N=C/c3ccc(-c4cn5ccccc5[n+]4C)cc3)cc2)cn2ccccc21 with SNB-75 CNS - TGI?
Solution: > 100 µM

Exercise: Item CC(C)(C)n1cc(-c2ccnc(NCCCNS(=O)(=O)c3ccc(Cl)cc3)c2)c(-c2cccc(O)c2)n1 with SNB-75 CNS - TGI?
Solution: 3.03 µM

Exercise: Item COC1=CC(=O)N(C(=O)[C@@H](OC(=O)[C@@H]2CCCN2C(=O)[C@@H]2CCCN2C(=O)[C@H](CC(C)C)N(C)C(=O)[C@@H](NC(=O)[C@@H](NC(=O)OCc2ccccc2)C(C)C)C(C)C)C(C)C)[C@H]1Cc1ccccc1 (Cbz-VV[NMeL]PP-X28) with SNB-75 CNS - TGI?
Solution: 9.27 µM

Exercise: Item CN(C)C(=S)/N=c1\ssc(=S)n1Cc1ccccn1 with SNB-75 CNS - TGI?
Solution: > 56.6 µM

Exercise: Item COc1ccc(CCNC(=S)/N=C\C2=C(O)c3ccccc3C2=O)cc1OC with SNB-75 CNS - TGI?
Solution: > 100 µM

Exercise: Item COc1cc(C2c3cc4c(cc3OC(N3CCOCC3)C2C)OCO4)cc(OC)c1OC (stereo not drawn) with SNB-75 CNS - TGI?
Solution: > 48.2 µM

Exercise: Item N#CNc1nc(C(=O)Nc2ccc(Cl)cc2)cc(-c2ccccc2)n1 with SNB-75 CNS - TGI?
Solution: > 100 µM

Exercise: Item CCOc1ccc(-n2c(=O)n3c(Nc4ccc(Cl)cc4)nc4c(c(=O)n(C)c(=O)n4C)n3c2=O)cc1 with SNB-75 CNS - TGI?
Solution: 69.1 µM

Exercise: Item NC(=O)C12CCC1C1CCCCC12N1CCOCC1 (stereo not drawn) with SNB-75 CNS - TGI?
Solution: > 100 µM
